Numbers sourced from patent US11220504B2.

Biological target: human TLR8 (Homo sapiens, UniProt Q9NR97)
Construct: expressed in transfected cells; host or cells: HEK293 cells, transient transfection with TLR8 plasmid and NFκB-luc plasmid
Sequence (Q9NR97 27-1041): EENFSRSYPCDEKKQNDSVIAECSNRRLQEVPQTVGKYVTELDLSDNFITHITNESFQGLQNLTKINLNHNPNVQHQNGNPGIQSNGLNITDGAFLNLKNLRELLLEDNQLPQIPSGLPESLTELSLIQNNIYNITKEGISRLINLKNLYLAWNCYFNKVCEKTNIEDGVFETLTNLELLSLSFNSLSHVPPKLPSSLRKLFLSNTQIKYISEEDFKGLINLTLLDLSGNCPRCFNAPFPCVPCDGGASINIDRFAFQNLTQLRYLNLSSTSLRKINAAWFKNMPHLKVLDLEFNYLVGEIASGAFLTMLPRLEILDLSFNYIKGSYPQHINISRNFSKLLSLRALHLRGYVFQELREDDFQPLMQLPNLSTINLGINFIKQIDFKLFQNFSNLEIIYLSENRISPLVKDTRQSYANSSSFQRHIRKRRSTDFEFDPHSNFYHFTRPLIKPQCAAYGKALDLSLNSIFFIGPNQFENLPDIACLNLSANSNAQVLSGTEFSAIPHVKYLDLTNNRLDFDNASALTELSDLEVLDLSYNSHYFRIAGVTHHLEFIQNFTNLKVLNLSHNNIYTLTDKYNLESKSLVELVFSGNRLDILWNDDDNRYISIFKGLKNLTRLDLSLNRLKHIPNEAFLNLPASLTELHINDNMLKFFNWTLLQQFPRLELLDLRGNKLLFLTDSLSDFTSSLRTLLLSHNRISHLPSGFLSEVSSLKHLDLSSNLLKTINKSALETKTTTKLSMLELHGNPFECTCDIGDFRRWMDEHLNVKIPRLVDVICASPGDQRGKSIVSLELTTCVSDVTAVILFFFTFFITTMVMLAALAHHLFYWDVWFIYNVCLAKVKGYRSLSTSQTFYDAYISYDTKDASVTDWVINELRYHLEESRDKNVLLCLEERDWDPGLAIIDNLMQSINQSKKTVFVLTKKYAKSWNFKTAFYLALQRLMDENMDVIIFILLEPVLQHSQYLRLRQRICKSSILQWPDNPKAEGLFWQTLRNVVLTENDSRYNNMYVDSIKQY
Experiment: TLR8 cellular reporter assay (HEK293, NFκB-luc)
Assay type: cell-based
Conditions: HEK293 cells transfected with CMV-TLR8 and NFκB-luc, 6 hours incubation; lowest effective concentration
Here, each record is paired with measured TLR8 LEC data.
Please respond with the number in µM and leave the unit unwritten.

| compound | attributeMeasured | outputUnit | resultValue |
| --- | --- | --- | --- |
| CCCCNc1nc(N)nc2ccn(CCCC)c12 | TLR8 LEC | µM | 1.7 |
| CCCCNc1nc(N)nc2ccn(C(C)C)c12 | TLR8 LEC | µM | 7.06 |
| CCCC[C@@H](CCO)Nc1nc(N)nc2ccn(CC3CCCO3)c12 (some centres unmarked) | TLR8 LEC | µM | 2.17 |
| CCC[C@@H](CCO)Nc1nc(N)nc2ccn(CC3CCC3)c12 | TLR8 LEC | µM | 0.57 |
| CCCCNc1nc(N)nc2ccn(CC3CCCO3)c12 (centres unmarked) | TLR8 LEC | µM | 4.68 |

We next turn to a different compound, shown below.
Record CCCCNc1nc(N)nc2ccn(Cc3c(OC)cccc3OC)c12 . Reported TLR8 LEC: 0.23
